test system: EPHA8; details: concentration: 1 μM, replicates: in singlicate; n = 1
Give %Inh for every item shown.
Numbers only, in %.

The examples below pair each entry with its known result.
* Cc1ccc(NC(=O)c2ccc(Cl)cc2)cc1-c1ccc(C(=O)Nc2ccncc2)cc1 | 18
* Cn1cnc2c(N)ncnc21 | 0
* Cl.Cl.Cl.N#Cc1ccc(CCNc2nccc(-c3cccc(CN4CCNCC4)c3)n2)cc1 | 14
* Cn1cncc1C(=O)NC1CCN(c2ccnc(Nc3ccc(F)cc3)n2)C1 (stereo not drawn) | 4
* COc1cccc(CNC(=O)NC2CCN(c3ccnc(Nc4ccc(F)cc4)n3)C2)c1 (stereo not drawn) | 15

Below are 2 compounds. Give each one its %Inh.
1. COC(=O)C(Cc1ccccc1)NC(=O)NC1CCN(c2ccnc(Nc3ccc(F)cc3)n2)C1 (stereo not drawn)
2. CCCCc1nn2ncccc2c1-c1ccnc(NC2CC2)n1

Solution:
1. 5
2. 9

Dear colleague, could you please provide %Inh for the compounds listed below?
1. CC(=O)c1c(C)c2cnc(Nc3ccc(N4CCNCC4)cn3)nc2n(C2CCCC2)c1=O
2. Fc1ccc(-c2nn3cccc(F)c3c2-c2ccncc2)cc1

Solution:
[0, 4]

* * *

Record form. Attribute: %Inh. Fill in for each entry.
system: LZK; construct: gene MAP3K13; details: concentration: 1 μM, replicates: in singlicate; n = 1
Give bare numbers, in %.

A selection of reference data follows.
* COC(=O)C(Cc1ccccc1)NC(=O)NC1CCN(c2ccnc(Nc3ccc(F)cc3)n2)C1 (centres unmarked) [GSK1379714] | 23
* CS(=O)(=O)CCNCc1nc(-c2ccc3ncnc(Nc4ccc(OCc5ccccc5)c(Cl)c4)c3c2)cs1.Cl [GW582764] | 36
* COc1ccc(Nc2nccc(N3CCC(NC(=O)C(C)c4ccc(Cl)cc4)CC3)n2)cc1 (centres unmarked) [GSK1379812] | 36
* CCCCc1nn2ncccc2c1-c1ccnc(NC2CC2)n1 [GW684374] | 0
* Cc1c(Cn2c3ccccc3n3c(=O)cc(N4CCOCC4)nc23)cccc1C(F)(F)F [GSK2306394] | 0

Working through the 3 compounds below one at a time, give %Inh for each.
1. COc1ccc(CSc2nnc(-c3ccc4nccn4c3)o2)cc1C(F)(F)F
2. Cc1ccccc1-c1cc(-c2c[nH]nc2-c2ccccn2)ccn1 [GW680061]
3. COc1ccc(Nc2nccc(-c3ccc(NC(=O)c4cc5cc(F)ccc5[nH]4)cc3)n2)cc1 [GSK1229496]

Solution:
1. 18
2. 4
3. 21

* * *

system: PRKX; conditions: concentration: 1 μM, replicates: in singlicate; n = 1
Observed property: %Inh (%)
Numbers only, in %.

Use these answered entries as a reference point.
- COc1nccc(-c2c(-c3ccc(F)cc3)ncn2CCCN2CCOCC2)n1: 0
- c1ccc(-c2ccnc3[nH]ccc23)cc1: 0
- COc1ccc(Nc2nccc(-c3ccc(NC(=O)c4cc5cc(F)ccc5[nH]4)cc3)n2)cc1: 5
- CS(=O)(=O)CCNCc1nc(-c2ccc3ncnc(Nc4ccc(OCc5ccccc5)c(Cl)c4)c3c2)cs1.Cl: 0
- COc1cc2ncnc(Nc3cccc(Br)c3)c2cc1OC.Cl: 6
- COC(=O)c1cccc(NC(=O)NC2CCN(c3ccnc(Nc4ccc(OC)cc4)n3)C2)c1 (stereo not drawn): 0

# batch size: 3; output %Inh per entry
1. Cl.Cl.Cl.N#Cc1ccc(CCNc2nccc(-c3cccc(CN4CCNCC4)c3)n2)cc1
2. CNc1nc(-c2ccc3c(N)n[nH]c3c2)cc(N2C[C@@H](C(=O)Nc3ccccc3)CC[C@H]2C)n1
3. COC(=O)c1cccc(NC(=O)NC2CCN(c3ccnc(Nc4ccc(F)cc4)n3)C2)c1 (stereo not drawn)

Solution:
[4, 97, 0]

* * *

system: NIK; construct: gene MAP3K14; settings: concentration: 1 μM, replicates: in singlicate; n = 1
Observed property: %Inh (%)
One number for each entry, in %.

Sample records with %Inh:
- CC[C@@H]1CO[C@H](C(=O)Nc2ccccc2)CN1c1cc(-c2ccc3c(N)n[nH]c3c2)nc(NC)n1: 0
- Cn1cncc1C(=O)NC1CCN(c2ccnc(Nc3ccc(F)cc3)n2)C1 (centres unmarked): 25
- COc1cccc(CNC(=O)NC2CCN(c3ccnc(Nc4ccc(F)cc4)n3)C2)c1 (centres unmarked): 24

Hello, I would appreciate it if you could give %Inh for each entry below.
1. CS(=O)(=O)CCNCc1nc(-c2ccc3ncnc(Nc4ccc(OCc5ccccc5)c(Cl)c4)c3c2)cs1.Cl
2. COc1cccc(NC(=O)Nc2ccc(C)c(-c3ccc(C(=O)Nc4ccncc4)cc3)c2)c1
3. COc1ccc(Nc2nccc(N3CCC(NC(=O)c4cc5ccccc5s4)C3)n2)cc1 (centres unmarked)

Solution:
4
0
1

Provide reported %Inh for each item, in the same order as listed.
1. Nc1nccc(-c2c(-c3ccc(F)cc3)ncn2C2CCN(Cc3ccccc3)CC2)n1
2. Cc1nccc(-c2c(-c3ccc(F)cc3)ncn2CCCN2CCOCC2)n1.Cl

Solution:
1. 15
2. 48

* * *

tested on: SNARK; construct: gene NUAK2; conditions: concentration: 1 μM, replicates: in singlicate; n = 1
Observed property: %Inh (%)
One number for each entry, in %.

Completed entries (count: 5):
• COC(=O)c1cccc(NC(=O)NC2CCN(c3ccnc(Nc4ccc(F)cc4)n3)C2)c1 (stereo not drawn) [GSK1379725] = 0
• Cc1c(Cn2c(C)c(C)n3c(=O)cc(N4CCOCC4)nc23)cccc1C(F)(F)F [GSK2328680] = 0
• O=C(Nc1n[nH]c2cc(-c3ccsc3)ccc12)C1CC1 [SB-732932] = 29
• O=c1cc(N2CCOCC2)nc2n(Cc3cccc(Cl)c3Cl)c3ccccc3n12 [GSK2299009] = 16
• Nc1nccc(-c2c(-c3ccc(F)cc3)ncn2C2CCN(Cc3ccccc3)CC2)n1 [SB-219980] = 38

Parameters: items (list). Returns: %Inh for each item.
1. Fc1ccc(-c2nn3cccc(F)c3c2-c2ccncc2)cc1 [GW475620]
2. COc1cccc(CNC(=O)NC2CCN(c3ccnc(Nc4ccc(F)cc4)n3)C2)c1 (stereo not drawn) [GSK1379723]
3. CC(C)c1cc(-c2ccc3c(N)n[nH]c3c2)nc(N)n1 [GSK2250882]
4. COc1cccc(NC(=O)Nc2ccc(C)c(-c3ccc(C(=O)Nc4ccncc4)cc3)c2)c1 [GSK1398474]

Solution:
1: 0; 2: 0; 3: 0; 4: 13

* * *

Values of pKd reported for BRSK2 appear below.
pKd: −log10 of the molar value.

Here is how some compounds turned out for pKd.
- c1ccc(-c2ccnc3[nH]ccc23)cc1: < 5.00
- O=c1cc(N2CCOCC2)nc2n(Cc3ccccc3F)ccn12: < 5.00

Per the records, this compound ( `Cc1ccccc1Cn1ccn2c(=O)cc(N3CCOCC3)nc12` ) has pKd equal to < 5.00

* * *

test system: CDC2L2
Observed property: Kd

Kd reported for this molecule `CC(=O)c1c(C)c2cnc(Nc3ccn(C)n3)nc2n(C2CCCC2)c1=O` : > 10 µM

* * *

tested on: AXL; conditions: concentration: 1 μM, replicates: in singlicate; n = 1
Observed property: %Inh
# answer = value followed by unit

* COc1nccc(-c2c(-c3ccc(F)cc3)ncn2CCCN2CCOCC2)n1 | 0%

Need %Inh for each of these molecules.
1. Cn1cnc2c(N)ncnc21
2. Nc1cccc(-c2ccc3c(N)n[nH]c3c2)n1

Solution:
1: 10%; 2: 0%

* * *

test system: RPS6KA5(Kin.Dom.1-N-terminal); settings: concentration: 1 μM, replicates: in singlicate; n = 1
// label = Satisfied if %Inh is not less than 3%, otherwise Not satisfied

- NS(=O)(=O)c1cccc(N/C=C2\C(=O)Nc3ccc(S(=O)(=O)Cc4c(Cl)cccc4Cl)cc32)c1: Not satisfied
- CC(=O)c1c(C)c2cnc(Nc3ccc(N4CCNCC4)cn3)nc2n(C2CCCC2)c1=O: Not satisfied
- Cc1ccc(NC(=O)Nc2ccccc2F)cc1-c1ccc(C(=O)Nc2ccncc2)cc1: Satisfied
- Cn1cncc1C(=O)NC1CCN(c2ccnc(Nc3ccc(F)cc3)n2)C1 (stereo not drawn): Not satisfied

Exercise: Decide: %Inh of `CNCc1ccc2nc(NC(=O)c3ccc(C(C)(C)C)cc3)cn2c1` >= 3%?
Solution: Not satisfied

Exercise: Form field: %Inh at least 3%? Entry: `O=C(Nc1n[nH]c2nc(-c3cccs3)c(Br)cc12)C1CC1`
Solution: Satisfied

Exercise: Textbook exercise: given the entry `Cc1c(Cn2c3ccccc3n3c(=O)cc(N4CCOCC4)nc23)cccc1C(F)(F)F` , state whether its %Inh is greater than or equal to 3%.
Solution: Satisfied

Exercise: Threshold query (%Inh >= 3%) on `c1ccc(-c2ccnc3[nH]ccc23)cc1`
Solution: Satisfied

Exercise: Quick check, %Inh >= 3%? `Fc1ccc(-c2nn3cccc(F)c3c2-c2ccncc2)cc1`
Solution: Satisfied

Exercise: Is reported %Inh greater than or equal to 3% here: `CS(=O)(=O)Cc1ccc(Nc2nccc(-c3c(-c4cccc(NC(=O)C5CCCCC5)c4)nn4ncccc34)n2)cc1`
Solution: Not satisfied

Exercise: Exam item: decide whether the reported %Inh for `CNc1nc(-c2ccc3c(N)n[nH]c3c2)cc(N2C[C@@H](C(=O)Nc3ccccc3)CC[C@H]2C)n1` is at least 3%.
Solution: Satisfied

Exercise: Hi team, for `COc1cc2ncnc(Nc3cccc(Br)c3)c2cc1OC.Cl` , is the recorded %Inh at or above 3%?
Solution: Not satisfied

Exercise: Given `Cc1ccccc1-c1cc(-c2c[nH]nc2-c2ccccn2)ccn1` , state whether its %Inh is at least 3%.
Solution: Satisfied

Exercise: Decide: %Inh of COC(=O)C(NC(=O)NC1CCN(c2ccnc(Nc3ccc(F)cc3)n2)C1)c1ccccc1 (stereo not drawn) >= 3%?
Solution: Not satisfied

Exercise: Form field: %Inh at least 3%? Entry: `COc1ccc(CSc2nnc(-c3ccc4ncsc4c3)o2)cc1C(F)(F)F`
Solution: Satisfied

Exercise: Identify whether the reported %Inh of the following molecule is 3% or greater: `Fc1ccc(-c2nc3n(c2-c2ccncc2)CCS3)cc1`
Solution: Satisfied

Exercise: Hi, just wondering whether `FC(F)(F)c1ccccc1-c1cc(-c2c[nH]nc2-c2ccccn2)ccn1` shows %Inh of 3% or higher.
Solution: Satisfied

Exercise: Hello, I need to know if `Fc1ccc(-c2nc[nH]c2-c2ccncc2)cc1` has measured %Inh not below 3%. Thanks!
Solution: Not satisfied
